Let's look at some binders and their measured HEK-Blue activity, No BP, DF-1,000,000.
# measured-target: T1, IL-18 receptors on HEK-Blue IL-18 reporter cells (UniProt Q13478 19-541; O95256 20-599, limits assumed); also: unit not given here
# T1 sequence (looked up) 1: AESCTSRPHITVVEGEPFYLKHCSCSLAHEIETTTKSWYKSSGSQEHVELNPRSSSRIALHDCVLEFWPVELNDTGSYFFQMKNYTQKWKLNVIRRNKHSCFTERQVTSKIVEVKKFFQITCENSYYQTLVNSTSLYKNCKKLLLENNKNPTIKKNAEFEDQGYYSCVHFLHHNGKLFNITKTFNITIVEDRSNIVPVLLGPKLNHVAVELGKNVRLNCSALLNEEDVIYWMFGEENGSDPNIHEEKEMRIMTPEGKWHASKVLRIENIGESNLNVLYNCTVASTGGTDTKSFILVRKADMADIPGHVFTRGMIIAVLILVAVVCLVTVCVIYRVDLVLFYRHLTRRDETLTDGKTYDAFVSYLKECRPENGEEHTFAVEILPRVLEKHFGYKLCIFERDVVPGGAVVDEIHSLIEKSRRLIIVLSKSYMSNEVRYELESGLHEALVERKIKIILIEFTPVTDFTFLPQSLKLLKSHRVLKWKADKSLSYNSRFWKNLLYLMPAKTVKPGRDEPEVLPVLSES
# T1 sequence (looked up) 2: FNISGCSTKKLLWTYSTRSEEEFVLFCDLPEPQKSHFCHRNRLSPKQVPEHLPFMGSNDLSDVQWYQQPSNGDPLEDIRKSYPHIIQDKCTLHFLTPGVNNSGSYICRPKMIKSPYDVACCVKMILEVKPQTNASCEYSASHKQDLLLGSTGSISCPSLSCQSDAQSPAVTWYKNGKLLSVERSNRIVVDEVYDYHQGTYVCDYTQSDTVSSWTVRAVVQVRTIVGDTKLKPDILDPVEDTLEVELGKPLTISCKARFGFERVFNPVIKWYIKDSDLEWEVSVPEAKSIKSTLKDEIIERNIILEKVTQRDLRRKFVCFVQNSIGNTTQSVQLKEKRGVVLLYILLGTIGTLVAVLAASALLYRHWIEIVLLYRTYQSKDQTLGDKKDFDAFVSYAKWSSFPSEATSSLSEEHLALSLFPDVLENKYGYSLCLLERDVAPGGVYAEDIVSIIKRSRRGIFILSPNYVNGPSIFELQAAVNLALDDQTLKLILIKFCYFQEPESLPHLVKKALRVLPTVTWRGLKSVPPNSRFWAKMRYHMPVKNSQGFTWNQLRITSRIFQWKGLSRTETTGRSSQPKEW
# method-description: cell-based or functional assay
measurement-label: HEK-Blue activity, No BP, DF-1,000,000

binder	result
yeast display IL-18 variant K53N, S55I (ligand) YFGKLESKLSVIRNLNDQVLFIDQGNRPLFEDMTDSDMRDNAPRTIFIISMYNDIQPRGMAVTISVKSEKISTLSSENKIISFKEMNPPDNIKDTKSDIIFFQRSVPGHDNKMQFESSSYEGYFLASEKERDLFKLILKKEDELGDRSIMFTVQNED	0.09
yeast display IL-18 variant K53T, S55P (ligand) YFGKLESKLSVIRNLNDQVLFIDQGNRPLFEDMTDSDMRDNAPRTIFIISMYTDPQPRGMAVTISVKSEKISTLSSENKIISFKEMNPPDNIKDTKSDIIFFQRSVPGHDNKMQFESSSYEGYFLASEKERDLFKLILKKEDELGDRSIMFTVQNED	0.16
yeast display IL-18 variant E6D, S36F, K53T, S55M, R58K (ligand) YFGKLDSKLSVIRNLNDQVLFIDQGNRPLFEDMTDFDMRDNAPRTIFIISMYTDMQPKGMAVTISVKSEKISTLSSENKIISFKEMNPPDNIKDTKSDIIFFQRSVPGHDNKMQFESSSYEGYFLASEKERDLFKLILKKEDELGDRSIMFTVQNED	0.09
yeast display IL-18 variant K53T, S55M, R58K (ligand) YFGKLESKLSVIRNLNDQVLFIDQGNRPLFEDMTDSDMRDNAPRTIFIISMYTDMQPKGMAVTISVKSEKISTLSSENKIISFKEMNPPDNIKDTKSDIIFFQRSVPGHDNKMQFESSSYEGYFLASEKERDLFKLILKKEDELGDRSIMFTVQNED	0.12
yeast display IL-18 variant K53Q, D54N, S55M, Q56H (ligand) YFGKLESKLSVIRNLNDQVLFIDQGNRPLFEDMTDSDMRDNAPRTIFIISMYQNMHPRGMAVTISVKSEKISTLSSENKIISFKEMNPPDNIKDTKSDIIFFQRSVPGHDNKMQFESSSYEGYFLASEKERDLFKLILKKEDELGDRSIMFTVQNED	0.09
yeast display IL-18 variant K53S, S55G (ligand) YFGKLESKLSVIRNLNDQVLFIDQGNRPLFEDMTDSDMRDNAPRTIFIISMYSDGQPRGMAVTISVKSEKISTLSSENKIISFKEMNPPDNIKDTKSDIIFFQRSVPGHDNKMQFESSSYEGYFLASEKERDLFKLILKKEDELGDRSIMFTVQNED	0.3
yeast display IL-18 variant K53T, S55A (ligand) YFGKLESKLSVIRNLNDQVLFIDQGNRPLFEDMTDSDMRDNAPRTIFIISMYTDAQPRGMAVTISVKSEKISTLSSENKIISFKEMNPPDNIKDTKSDIIFFQRSVPGHDNKMQFESSSYEGYFLASEKERDLFKLILKKEDELGDRSIMFTVQNED	0.29
